From: PubChem BioAssay AID2060620

Tested on: 328373-195-R-J1-PDC complex spheroids, viability % test/control
run_description: Anticancer human tumor 328373-195-R-J1-PDC patient-derived head and neck squamous carcinoma cell line growth inhibition [CLK]
study_conditions: second compound 0.1 µM; first compound 1 µM; stronger effect = lower value
Criterion: viability, T/C strictly less than 80%. Met: yes (1). Not met: no (0).

CC(=O)O[C@H]1C(=O)[C@@]2(C)[C@H]([C@H](OC(=O)c3ccccc3)[C@]3(O)C[C@H](OC(=O)[C@H](O)[C@@H](NC(=O)c4ccccc4)c4ccccc4)C(C)=C1C3(C)C)[C@]1(OC(C)=O)CO[C@@H]1C[C@@H]2O + CN1CCN(c2cc(C(=O)Nc3cc4cc(-c5cnn(C)c5)ccc4cn3)ccn2)CC1 | yes (1)
CC(CO)NC(=O)c1cc(-c2ccc(Cl)cc2)nn(-c2cnn(C)c2)c1=O (stereo not given) + CN1CCN(c2cc(C(=O)Nc3cc4cc(-c5cnn(C)c5)ccc4cn3)ccn2)CC1 | no (0)
Nc1ccccc1NC(=O)c1ccc(CNC(=O)OCc2cccnc2)cc1 + CN1CCN(c2cc(C(=O)Nc3cc4cc(-c5cnn(C)c5)ccc4cn3)ccn2)CC1 | yes (1)
C#Cc1c(F)ccc2cc(O)cc(-c3ncc4c(N5CC6CCC(C5)N6)nc(OCC56CCCN5CC(F)C6)nc4c3F)c12 (stereo not given) + CN1CCN(c2cc(C(=O)Nc3cc4cc(-c5cnn(C)c5)ccc4cn3)ccn2)CC1 | no (0)

----------
Test system: 328373-195-R-J1-PDC complex spheroids, viability % test/control
run_description: Anticancer human tumor 328373-195-R-J1-PDC cell line growth inhibition [CLK];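 also: spheroids exposed to the agents for 7 days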
study_conditions: curve of compound
pIC50: −log10 of the molar value.
observed_property: pIC50

C#Cc1c(F)ccc2cc(O)cc(-c3ncc4c(N5CC6CCC(C5)N6)nc(OCC56CCCN5CC(F)C6)nc4c3F)c12 (configuration not stated) | < 5.00
CCCS(=O)(=O)Nc1ccc(F)c(C(=O)c2c[nH]c3ncc(-c4ccc(Cl)cc4)cc23)c1F | < 5.00
COc1cccc2c1C(=O)c1c(O)c3c(c(O)c1C2=O)CC(O)(C(=O)CO)CC3OC1CC(N)C(O)C(C)O1 (configuration not stated) | > 7.50
CC(CO)NC(=O)c1cc(-c2ccc(Cl)cc2)nn(-c2cnn(C)c2)c1=O (configuration not stated) | < 5.00
C=CC(=O)Nc1cc(Nc2nccc(-c3cn(C)c4ccccc34)n2)c(OC)cc1N(C)CCN(C)C | < 6.52
Cn1ncnc1[C@H]1c2n[nH]c(=O)c3cc(F)cc(c23)N[C@@H]1c1ccc(F)cc1 | < 7.00
Nc1ccn(C2OC(CO)C(O)C2(F)F)c(=O)n1 (configuration not stated) | > 7.50
C=CC(=O)N1CCN(c2nc(=O)n(-c3c(C)ccnc3C(C)C)c3nc(-c4c(O)cccc4F)c(F)cc23)C(C)C1 (configuration not stated) | < 5.00
CCc1c2c(nc3ccc(O)cc13)-c1cc3c(c(=O)n1C2)COC(=O)[C@]3(O)CC | > 8.50
CC(=O)O[C@H]1C(=O)[C@@]2(C)[C@H]([C@H](OC(=O)c3ccccc3)[C@]3(O)C[C@H](OC(=O)[C@H](O)[C@@H](NC(=O)c4ccccc4)c4ccccc4)C(C)=C1C3(C)C)[C@]1(OC(C)=O)CO[C@@H]1C[C@@H]2O | > 7.50
O=C(c1cc(Cc2n[nH]c(=O)c3ccccc23)ccc1F)N1CCN(C(=O)C2CC2)CC1 | < 5.00
CCN1CCN(Cc2ccc(Nc3ncc(F)c(-c4cc(F)c5nc(C)n(C(C)C)c5c4)n3)nc2)CC1 | < 6.00
